tgt: Thyrotropin-releasing hormone receptor (Homo sapiens) (UniProt P34981)
Sequence (P34981 whole entry, looked up): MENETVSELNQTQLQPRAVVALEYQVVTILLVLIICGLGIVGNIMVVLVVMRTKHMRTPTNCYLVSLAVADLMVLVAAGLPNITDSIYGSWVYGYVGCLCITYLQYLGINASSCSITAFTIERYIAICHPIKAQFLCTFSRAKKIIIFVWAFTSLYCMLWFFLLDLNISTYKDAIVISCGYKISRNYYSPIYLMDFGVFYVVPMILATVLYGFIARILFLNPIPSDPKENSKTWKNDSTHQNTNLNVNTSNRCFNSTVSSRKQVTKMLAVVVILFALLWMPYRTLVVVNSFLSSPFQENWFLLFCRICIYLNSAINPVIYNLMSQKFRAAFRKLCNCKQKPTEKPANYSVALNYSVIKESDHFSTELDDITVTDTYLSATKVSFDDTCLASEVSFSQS
assay.name: qHTS assay to identify small molecule agonists of the thyrotropin-releasing hormone receptor (TRHR) signaling pathway (AID 1346891)
measurement.setup: TRHR-HEK293 calcium fluorescence, agonist mode; series mostly up to 57.6 µM
Active and inactive are the calls of the source. The call rests on the fitted dose curve.
Outcomes: active, inactive

compound	tgt	classification
COc1ccc2c3c1O[C@H]1[C@H](O)CC[C@H]4[C@@H](C2)N(C)CC[C@@]341	Thyrotropin-releasing hormone receptor (Homo sapiens) (UniProt P34981)	inactive
Cc1cc2c3c(c1)C(c1ccccc1)=N[C@@H](NC(=O)c1ccncc1)C(=O)N3CC2	Thyrotropin-releasing hormone receptor (Homo sapiens) (UniProt P34981)	inactive
O.O.O.O=C([O-])[C@H]([O-])[C@@H]([O-])C(=O)[O-].O=C([O-])[C@H]([O-])[C@@H]([O-])C(=O)[O-].[K+].[K+].[Sb+3].[Sb+3]	Thyrotropin-releasing hormone receptor (Homo sapiens) (UniProt P34981)	inactive
CCC[CH2][Sn]([CH2]CCC)([CH2]CCC)[CH2]CCC	Thyrotropin-releasing hormone receptor (Homo sapiens) (UniProt P34981)	inactive
C=CC(=O)[O][Sn]([CH2]CCC)([CH2]CCC)[CH2]CCC	Thyrotropin-releasing hormone receptor (Homo sapiens) (UniProt P34981)	active
C[C@]12Cc3cn[nH]c3C[C@@H]1CC[C@@H]1[C@@H]2CC[C@@]2(C)[C@H]1CC[C@]2(C)O	Thyrotropin-releasing hormone receptor (Homo sapiens) (UniProt P34981)	inactive
Oc1cc(Cl)cc(Cl)c1	Thyrotropin-releasing hormone receptor (Homo sapiens) (UniProt P34981)	inactive
Nc1nc(N)c(N)c(N)n1	Thyrotropin-releasing hormone receptor (Homo sapiens) (UniProt P34981)	active
NC(=O)C(Cl)Cl	Thyrotropin-releasing hormone receptor (Homo sapiens) (UniProt P34981)	inactive
CC(Cc1ccc(O)cc1)NCC(O)c1cc(O)cc(O)c1 (configuration not stated)	Thyrotropin-releasing hormone receptor (Homo sapiens) (UniProt P34981)	inactive
O=C(N[C@@H]1N=C(c2ccccc2F)c2cccc3c2N(CC3)C1=O)c1cc2ccccc2[nH]1	Thyrotropin-releasing hormone receptor (Homo sapiens) (UniProt P34981)	active
CC1=C2C[C@H]3[C@@H](CC=C4C[C@@H](O)CC[C@@]43C)[C@@H]2CC[C@]12O[C@@H]1C[C@H](C)CN[C@H]1[C@H]2C	Thyrotropin-releasing hormone receptor (Homo sapiens) (UniProt P34981)	inactive
CC(C)c1c(CN(C)C(C)Cc2ccccc2)n(C)n(-c2ccccc2)c1=O (configuration not stated)	Thyrotropin-releasing hormone receptor (Homo sapiens) (UniProt P34981)	inactive
CC#C[C@]1(O)CC[C@H]2[C@@H]3C[C@H](C)C4=CC(=O)CC[C@]4(C)[C@H]3CC[C@@]21C	Thyrotropin-releasing hormone receptor (Homo sapiens) (UniProt P34981)	inactive
CC(=O)[O][Sn]([c]1ccccc1)([c]1ccccc1)[c]1ccccc1	Thyrotropin-releasing hormone receptor (Homo sapiens) (UniProt P34981)	active
CN(C)CCc1c[nH]c2ccccc12	Thyrotropin-releasing hormone receptor (Homo sapiens) (UniProt P34981)	inactive
O=[N+]([O-])c1cccc2cccc([N+](=O)[O-])c12	Thyrotropin-releasing hormone receptor (Homo sapiens) (UniProt P34981)	inactive
CCN(CC)CCc1c[nH]c2ccccc12	Thyrotropin-releasing hormone receptor (Homo sapiens) (UniProt P34981)	inactive
Cc1cnc2c(C(=O)O)c(Cl)ccc2c1	Thyrotropin-releasing hormone receptor (Homo sapiens) (UniProt P34981)	inactive
CN1[C@@H]2CC[C@H]1CC(O)C2 (some centres not stated)	Thyrotropin-releasing hormone receptor (Homo sapiens) (UniProt P34981)	inactive
O=P(Cl)(Cl)Cl	Thyrotropin-releasing hormone receptor (Homo sapiens) (UniProt P34981)	inactive
ClSC(Cl)(Cl)Cl	Thyrotropin-releasing hormone receptor (Homo sapiens) (UniProt P34981)	inactive

Source: PubChem BioAssay (Tox21)
